Hey, just so you know, these numbers are from the supplement of paper PMC8728848.

molecular target: Neu5Ac(a2-3)Gal(b1-3)[Neu5Ac(a2-6)]GalNAc; assay: glycan array binding signal (z-score within array); higher = stronger binding; conditions: glycan notation: IUPAC condensed, linker removed
This excerpt belongs to a sample that is enriched for the strongest signals.
Entries annotated with measured glycan array binding signal (z-score)
Output: the number by itself.

Example entries begin here.
[[record]]
binder = "Siglec-H (Mus musculus), Q4QQK7 (protein) MLLSRLLPLLWVLKWASGNCFILPREVIGTYPSLTLELQSVTVQEGLCVLVPCHLIEYPMNRWSDAAFGYWFHEGENTHPDSLVATNKPYQLVQKEMQSRFHFSGDCSLDIRDAQKGDNGSYFFRLEKGGKTWNFCEERISVHVTDLTHSPNISIPQTLELGRPTNVMCSVPWACERGTPPIFSWMSAALISLGPTTTLSSVLTLTPRLQDHGTNLTCQVTFPGAGVTVQKTIQLNVTYNSQNSTAHVSGRVGPGKPRPLADVVQVAMGEAAIKFLLLGICFFFLSKRSHTKRVERPATHMDQAHAVMD"
test_readout = "glycan array binding signal (z-score)"
measurement = 2.4

[[record]]
binder = "MUB70 (Lactobacillus reuteri) (protein) CVHVQYIDGETDQMLRQDDLDGYTDETIPYSTAEGIKKFEGDGYELFKDNFPAGEKFDNDDTNDQFYTVIF"
test_readout = "glycan array binding signal (z-score)"
measurement = 1.18

[[record]]
binder = "LSL-150 (Laetiporus sulphureus), Q7Z8V1 (protein) MTDIYIPPEGLYFRLLGFASRQVIFARNSPSPDVGLSPVNDQATDQYFSLIYGTGEHAGLYAIKSKATGKVLFSRRPAEPYVGQIDGDGRYPDNWFKIEPGKTYLSKYFRLVQPSTGTALVSRTHLQPYFWNHPQTEVFDDQYFTFLFEDHHHHHH"
test_readout = "glycan array binding signal (z-score)"
measurement = -0.208

[[record]]
binder = "PP2A1 (Arabidopsis thaliana) (protein) MFRNQDSKYLIPVQKEAPPVTTLPMKASTVKSPHNCEAILRDADPPISLSSVNLSEQLRSGVFLKPKKQIKYWVDERNSNCFMLFAKNLSITWSDDVNYWTWFTEKESPNENVEAVGLKNVCWLDITGKFDTRNLTPGIVYEVVFKVKLEDPAYGWDTPVNLKLVLPNGKEKPQEKKVSLRELPRYKWVDVRVGEFVPEKSAAGEITFSMYEHAAGVWKKGLSLKGVAIRPKQHHHHHH"
test_readout = "glycan array binding signal (z-score)"
measurement = 0.432


Okay, now this binder:
Check the records and state glycan array binding signal (z-score) for UEA-I (Ulex europaeus), P22972 (protein) SDDLSFKFKNFSQNGKDLSFQGDASVIETGVLQLNKVGNNLPDETGGIARYIAPIHIWNCNTGEVASFITSFSFFMETSANPKAATDGLTFFLAPPDSPLRRAGGYFGLFEDTKDNDSSYQTVAVEFDTIGSPVNFDDPGFPHIGIDVNRVKSINAERWNKRYGLNNVANVEIIYEASSKTLTASLTYPSDQTSISVTSIVDLKEILPEWVSVGFSGGTYIGRQATHEVLNWYFTSNLIN
-0.17
